For each record, write down the corresponding IC50.
Biological target: Diacylglycerol acyltransferase/mycolyltransferase Ag85C (Mycobacterium tuberculosis)
Sequence (P9WQN9 whole entry): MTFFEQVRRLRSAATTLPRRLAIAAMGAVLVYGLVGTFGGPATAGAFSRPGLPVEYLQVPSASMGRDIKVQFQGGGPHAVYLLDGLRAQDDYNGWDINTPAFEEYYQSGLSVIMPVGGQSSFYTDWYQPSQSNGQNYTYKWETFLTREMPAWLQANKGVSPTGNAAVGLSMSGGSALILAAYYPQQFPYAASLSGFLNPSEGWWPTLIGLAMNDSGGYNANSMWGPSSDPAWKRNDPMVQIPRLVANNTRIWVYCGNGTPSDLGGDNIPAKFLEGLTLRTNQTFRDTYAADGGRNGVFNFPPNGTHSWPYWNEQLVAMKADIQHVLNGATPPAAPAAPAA
Field: value (include unit after the number)

# input Using the record for CCCCCCCCCP(=O)(OCC)OCCN1C(=O)c2ccccc2C1=O (configuration not stated) , report its IC50.
# output 25.7 µM

# input Using the record for CCCCP(=O)(OCC)OCCN1C(=O)c2ccccc2C1=O (configuration not stated) , report its IC50.
# output 50.7 µM

# input Using the record for CCCCCCCCCCCCCCP(=O)(OCC)OCN1C(=O)c2ccccc2C1=O (configuration not stated) , report its IC50.
# output 41 µM

# input Using the record for CCCCP(=O)(OCC)OCN1C(=O)c2ccccc2C1=O (configuration not stated) , report its IC50.
# output 10 µM

# input Using the record for CCCCCCCCCP(=O)(OCC)OCN1C(=O)c2ccccc2C1=O (configuration not stated) , report its IC50.
# output 87.1 µM

# input Using the record for CCCCCCCCCP(=O)(OCC)OCc1cccc(Oc2ccccc2)c1 (configuration not stated) , report its IC50.
# output 14.8 µM

# input Using the record for CCCCCCCP(=O)(O)OCC [ETHYL HYDROGEN HEPTYLPHOSPHONATE] , report its IC50.
# output 1.06 µM

# input Using the record for CCCCCCP(=O)(O)OCCN1C(=O)c2ccccc2C1=O , report its IC50.
# output 4.39 µM

# input Using the record for CCCCCCCCCP(=O)(O)OCC [ETHYL HYDROGEN NONYLPHOSPHONATE] , report its IC50.
# output 471 µM

# input Using the record for CCCCCCCCCCCCCCP(=O)(OCC)OCc1cccc(Oc2ccccc2)c1 (configuration not stated) , report its IC50.
# output 862 µM

# input Using the record for CCCCCCCP(=O)(O)OCCN1C(=O)c2ccccc2C1=O , report its IC50.
# output 1.47 µM

# input Using the record for CCCCP(=O)(O)OCC [ETHYL HYDROGEN BUTYLPHOSPHONATE] , report its IC50.
# output 431 µM

# input Using the record for CCCCCCCP(=O)(OCC)OCN1C(=O)c2ccccc2C1=O (configuration not stated) , report its IC50.
# output 1.31 µM

# input Using the record for CCCCCCP(=O)(O)OCC [ETHYL HYDROGEN HEXYLPHOSPHONATE] , report its IC50.
# output 3.56 µM

# input Using the record for CCCCP(=O)(OCC)OCc1cccc(Oc2ccccc2)c1 (configuration not stated) , report its IC50.
# output 2.01 µM

# input Using the record for CCCCCCP(=O)(OCC)OCc1cccc(Oc2ccccc2)c1 (configuration not stated) , report its IC50.
# output 42.6 µM

# input Using the record for CCCCCCCP(=O)(OCC)OCc1cccc(Oc2ccccc2)c1 (configuration not stated) , report its IC50.
# output 21 µM
